- Test system: C33A
- PROTOCOL SUMMARY: cell proliferation by MTS assay for 72 h, C33A
- Assay type: cell-based, human
- MEASUREMENT CONDITIONS: Homo sapiens, C-33-A; C33A tumor cell line, MTS assay, 72 h
pIC50: −log10 of the molar value.

>  <LINE NOTATION>
CCCC[C@@H](NC(=O)[C@@H](Cc1cn(C(=O)OC)c2ccccc12)NC(=O)[C@H](CC(C)(C)C)NC(=O)N1[C@H](C)CCC[C@@H]1C)C(=O)O

>  <pIC50>
4.21

$$$$
